Experimental target: Cannabinoid receptor 1 (Rattus norvegicus)
Sequence (P20272 whole entry): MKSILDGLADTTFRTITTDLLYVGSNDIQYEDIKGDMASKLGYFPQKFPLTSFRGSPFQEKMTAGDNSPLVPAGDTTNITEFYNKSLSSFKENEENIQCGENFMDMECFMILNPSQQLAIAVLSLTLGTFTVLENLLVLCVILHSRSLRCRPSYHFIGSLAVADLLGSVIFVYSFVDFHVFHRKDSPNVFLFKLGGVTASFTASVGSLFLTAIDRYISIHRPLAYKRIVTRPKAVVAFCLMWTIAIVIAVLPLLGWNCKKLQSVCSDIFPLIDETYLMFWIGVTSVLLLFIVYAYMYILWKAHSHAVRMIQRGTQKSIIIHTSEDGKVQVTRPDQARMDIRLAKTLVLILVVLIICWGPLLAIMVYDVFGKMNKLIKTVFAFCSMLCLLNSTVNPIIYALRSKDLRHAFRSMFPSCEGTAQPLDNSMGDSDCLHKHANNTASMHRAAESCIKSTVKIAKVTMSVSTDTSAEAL
Experiment: Displacement of [3H]HU-243 from Sabra rat brain synaptosome CB1 receptor assessed as inhibition constant incubated for 90 mins
Type: subcellular
Outcome measure: Ki

{"Smiles input": "C=C(C)[C@H]1CCC(C)=C[C@@H]1c1c(OC)cc(C(C)(C)CCCCCC)cc1OC", "Ki": "> 1000 nM"}
{"Smiles input": "C=C(C)[C@@H]1CCC(C)=C[C@H]1c1c(OC)cc(C(C)(C)CCCCCC)cc1OC", "Ki": "> 1000 nM"}
{"Smiles input": "C=C(C)[C@H]1CCC(CO)=C[C@@H]1c1c(O)cc(C(C)(C)CCCCCC)cc1O", "Ki": "2.5 nM"}

Go through the items and report each one's Ki.
1. C=C(C)[C@@H]1CCC(C(=O)O)=C[C@H]1c1c(O)cc(CCCCC)cc1O
2. C=C(C)[C@H]1CCC(C)=C[C@@H]1c1c(O)cc(C(C)(C)CCCCCC)cc1O

1. > 1000 nM
2. 17.4 nM

Go through the items and report each one's Ki.
1. C=C(C)[C@@H]1CCC(CO)=C[C@H]1c1c(O)cc(C(C)(C)CCCCCC)cc1O
2. C=C(C)[C@H]1CCC(CO)=C[C@@H]1c1c(O)cc(CCCCC)cc1O
3. C=C(C)[C@@H]1CCC(C)=C[C@H]1c1c(O)cc(C(C)(C)CCCCCC)cc1O
4. C=C(C)[C@@H]1CCC(CO)=C[C@H]1c1c(O)cc(CCCCC)cc1O

≥ 4000 nM
5.3 nM
> 10000 nM
> 1000 nM

* * *

Kindly state Ki for each of the entries shown.
Experimental target: Cannabinoid receptor 2 (Homo sapiens, UniProt P34972)
Sequence (P34972 whole entry): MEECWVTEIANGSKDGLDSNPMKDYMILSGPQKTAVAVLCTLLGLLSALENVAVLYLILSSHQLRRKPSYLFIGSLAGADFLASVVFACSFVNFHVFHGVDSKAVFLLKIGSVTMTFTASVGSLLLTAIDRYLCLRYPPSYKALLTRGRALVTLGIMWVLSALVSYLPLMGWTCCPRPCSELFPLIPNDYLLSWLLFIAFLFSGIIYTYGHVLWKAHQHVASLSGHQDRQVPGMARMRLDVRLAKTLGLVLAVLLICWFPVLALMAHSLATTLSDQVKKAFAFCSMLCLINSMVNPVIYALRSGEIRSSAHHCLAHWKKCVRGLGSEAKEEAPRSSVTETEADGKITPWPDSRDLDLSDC
Experiment: Displacement of [3H]HU-243 from CB2 receptor (unknown origin) extracted from green monkey COS-7 cell membrane assessed as inhibition constant incubated for 90 mins
Format: cell membranes
One number for each entry, in nM.

In the examples that follow, each entry is paired with its recorded Ki.
{"Smiles input": "C=C(C)[C@H]1CCC(C)=C[C@@H]1c1c(O)cc(C(C)(C)CCCCCC)cc1O", "Output unit": "nM", "Reading": 211}
{"Smiles input": "C=C(C)[C@@H]1CCC(C)=C[C@H]1c1c(O)cc(C(C)(C)CCCCCC)cc1O", "Output unit": "nM", "Reading": 1800}
{"Smiles input": "C=C(C)[C@H]1CCC(CO)=C[C@@H]1c1c(O)cc(C(C)(C)CCCCCC)cc1O", "Output unit": "nM", "Reading": 44}
{"Smiles input": "C=C(C)[C@@H]1CCC(CO)=C[C@H]1c1c(O)cc(C(C)(C)CCCCCC)cc1O", "Output unit": "nM", "Reading": 671}

Now for a further compound.
Query (compound): C=C(C)[C@H]1CCC(CO)=C[C@@H]1c1c(O)cc(CCCCC)cc1O ; field requested: Ki
101

* * *

Experimental target: Transient receptor potential cation channel subfamily V member 1 (Homo sapiens, UniProt Q8NER1)
Sequence (Q8NER1 whole entry): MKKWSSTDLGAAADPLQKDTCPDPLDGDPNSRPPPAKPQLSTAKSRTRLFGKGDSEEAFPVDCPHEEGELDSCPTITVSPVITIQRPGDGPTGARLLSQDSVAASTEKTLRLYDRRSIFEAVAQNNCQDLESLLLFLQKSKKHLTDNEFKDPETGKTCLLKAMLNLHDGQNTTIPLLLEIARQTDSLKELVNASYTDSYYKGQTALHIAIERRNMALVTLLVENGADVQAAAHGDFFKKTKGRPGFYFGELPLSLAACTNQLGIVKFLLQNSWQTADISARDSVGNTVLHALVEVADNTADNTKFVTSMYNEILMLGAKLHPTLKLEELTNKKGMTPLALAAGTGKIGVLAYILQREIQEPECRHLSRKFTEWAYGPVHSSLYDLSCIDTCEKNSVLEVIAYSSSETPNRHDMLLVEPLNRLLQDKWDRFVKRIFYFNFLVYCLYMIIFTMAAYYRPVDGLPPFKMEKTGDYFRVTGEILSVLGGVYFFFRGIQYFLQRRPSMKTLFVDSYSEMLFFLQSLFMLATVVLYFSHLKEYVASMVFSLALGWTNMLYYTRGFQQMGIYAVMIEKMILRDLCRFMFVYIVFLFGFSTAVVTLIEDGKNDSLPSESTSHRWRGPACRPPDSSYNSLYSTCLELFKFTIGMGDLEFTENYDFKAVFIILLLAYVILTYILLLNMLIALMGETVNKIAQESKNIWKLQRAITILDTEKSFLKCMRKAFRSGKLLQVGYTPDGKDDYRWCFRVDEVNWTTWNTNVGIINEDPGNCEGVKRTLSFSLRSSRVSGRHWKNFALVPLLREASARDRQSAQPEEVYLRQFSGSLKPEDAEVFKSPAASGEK
Experiment: Agonist activity at human TRPV1 receptor expressed in HEK293 cells assessed as effect on [Ca2+]i preincubated with capsazepine for 30 mins followed by compound addition by Fluo-3 probe based fluorescence analysis
Type: cell-based
Kindly state pEC50 for each of the entries shown.
Answers are plain numbers, as −log10 of the molar value.

{"Compound": "C=C(C)[C@H]1CCC(C)=C[C@@H]1c1c(O)cc(CCCCC)cc1O", "Outcome measure": "pEC50", "Reading": 5.49}

Now for a further compound.
Query (compound): C=C(C)[C@@H]1CCC(C)=C[C@H]1c1c(O)cc(CCCCC)cc1O [CANNABIDIOL] ; field requested: pEC50
5.49
